Listed below: normalized growth values for each entry.
# Method: chemical genetic growth profiling, strain panel (AID 1159580);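 note: tested at 20 µM; growth read once vehicle control cultures reached saturation at 30 °C; 1 = growth at the plate median or of vehicle wells; lower values mean less growth of the strain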
# Details: S. cerevisiae deletion strains, growth OD, locus YJL095W, strain BCK1 (second series), hits give low values
In all, about 5,500 compounds went through this assay and about 2,000 (36%) were called active. Roughly 18% stayed inconclusive and do not appear here. Some of the results follow.
Please give only the number in your answer, with no unit.

Example compounds with recorded normalized growth:
Compound: C[C@@H](N)[C@@H](O)c1ccccc1
Property Measured: normalized growth
Assay Result: 0.999

Compound: c1ccc2c(c1)CN1CCCC1=N2
Property Measured: normalized growth
Assay Result: 1

Compound: COc1c2ccccc2nc2occc12
Property Measured: normalized growth
Assay Result: 0.968

Compound: C[C@H](N)[C@H](O)c1cccc(O)c1
Property Measured: normalized growth
Assay Result: 1.01

Compound: CN(C)CCOC(=O)C(c1ccccc1)C1(O)CCCC1 (stereo unspecified)
Property Measured: normalized growth
Assay Result: 0.996

Now, please, on to the next compound.
[in] Data request, read-out normalized growth, for Nc1ccncc1
[out] 0.991

###

# Method: chemical genetic growth profiling, strain panel (AID 1159580)
# Details: S. cerevisiae deletion strains, growth OD, locus YLL041C, strain sdh2, hits give low values
In all, about 5,500 compounds went through this assay and about 2,000 (36%) were called active. Inconclusive results (about 18%) are left out. The list shows a part of the results.
Listed below: normalized growth values for each entry.
Please give only the number in your answer, with no unit.

Molecule: CC12CC3CC(C)(C1)CC(N)(C3)C2
Assay Result: 0.997

Molecule: CC1=C2[C@H]3OC(=O)[C@@H](C)[C@@H]3CC[C@@]2(C)C=CC1=O
Assay Result: 0.998

Molecule: CCCCCC1C(=O)CCC1CC(=O)O (centres undefined)
Assay Result: 0.989

Molecule: COc1cc(OC)c(OC)cc1C=O
Assay Result: 0.996

Molecule: CCN(CC)C(C)CN1c2ccccc2Sc2ccccc21 (centres undefined)
Assay Result: 0.981

Molecule: CO[C@]12C[C@@H](COC(=O)c3cncc(Br)c3)CN(C)[C@@H]1Cc1cn(C)c3cccc2c13
Assay Result: 0.998

Molecule: OC[C@H]1OC([S-])[C@H](O)[C@@H](O)[C@@H]1O.[Au+] (some centres undefined)
Assay Result: 0.999

Molecule: COc1ccc(C(=O)N2CCCC2=O)cc1
Assay Result: 0.986

Now, please, on to the next molecule.
[in] Data request, read-out normalized growth, for CC(=O)Nc1ccccc1
[out] 0.985

###

Listed below: normalized growth values for each entry.
# Method: chemical genetic growth profiling, strain panel (AID 1159580)
# Details: S. cerevisiae deletion strains, growth OD, locus YOR001W, strain rrp6, hits give low values
The whole screen tested about 5,500 compounds, of which about 2,000 (36%) were called active. Another 18% or so got no clear call; they are omitted. Some of the results follow.

Compound: CC(CCC(=O)O)[C@H]1CCC2C3C[C@H](O)[C@@H]4C[C@H](O)CC[C@]4(C)C3CC[C@@]21C (stereo partly drawn)
Property Measured: normalized growth
Assay Result: 1.02 (inactive)

[in] Data request, read-out normalized growth, for CC(C)CCCC(C)C1CCC2C3CC[C@H]4CCCC[C@]4(C)C3CC[C@]12C (stereo partly drawn)
[out] 0.993 (inactive)

[in] Data request, read-out normalized growth, for C=C[C@H]1CN2CC[C@H]1C[C@@H]2[C@H](O)c1ccnc2ccccc12
[out] 1.01 (inactive)

###

# Method: chemical genetic growth profiling, strain panel (AID 1159580)
# Details: S. cerevisiae deletion strains, growth OD, locus YJL168C, strain set2, hits give low values
In all, about 5,500 compounds went through this assay and about 2,000 (36%) were called active. About 18% were inconclusive and are not listed. This is one part of the list.
Property Measured: normalized growth

Compound: COC(=O)CCC(C)[C@H]1CCC2C3C(C[C@H](O)[C@@]21C)[C@@]1(C)CC[C@@H](O)C[C@H]1C[C@H]3O (stereo partly drawn)
normalized growth: 1.03 (inactive)
//
Compound: NC(N)=NCCC[C@@H](NC(=O)[C@@H](N)Cc1ccc(O)cc1)C(=O)O
normalized growth: 1.01 (inactive)
//
Compound: COc1cc2c(cc1O)C(Cc1ccc(O)cc1)N(C)CC2 (stereo not drawn)
normalized growth: 0.998 (inactive)

Now, please, on to the next compound.
[in] Data request, read-out normalized growth, for CCCCCC1C(=O)CCC1CC(=O)O (stereo not drawn)
[out] 0.991 (inactive)

###

# Method: chemical genetic growth profiling, strain panel (AID 1159580);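 note: tested at 20 µM; growth read once vehicle control cultures reached saturation at 30 °C; 1 = growth at the plate median or of vehicle wells; lower values mean less growth of the strain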
# Details: S. cerevisiae deletion strains, growth OD, locus YNL153C, strain GIM3
Screen size: about 5,500 compounds; about 2,000 (36%) were called active. Not shown: some 18% with an inconclusive outcome. No stated cut-off is given here; in the data, active means normalized growth mostly below about 0.91 (no sharp cut-off); inconclusive means no clear call, values can overlap the other calls; inactive means mostly above about 0.92. The list shows a part of the results.
A correct response names exactly one class from 1 (yes) (active), 0 (no) (inactive)

Molecule: CCc1ccccc1NC(C)=O
Qualitative Label: 0 (no)

[in] // return assay outcome for Cc1cc(O)c(C)c2c1C(=O)Oc1c(C)c(O)c(C(=O)O)c(C)c1O2
[out] 0 (no)

[in] // return assay outcome for OC1(c2ccc(Cl)cc2)CSc2nc3cc(C(F)(F)F)ccc3n21 (centres undefined)
[out] 0 (no)

[in] // return assay outcome for CC12CC3CC(C)(C1)CC(N)(C3)C2
[out] 0 (no)

[in] // return assay outcome for Clc1ccc(OCCOc2ccc(Cl)cc2)cc1
[out] 0 (no)

[in] // return assay outcome for CC(=O)N=c1sc(S(N)(=O)=O)nn1C
[out] 0 (no)

###

# Method: chemical genetic growth profiling, strain panel (AID 1159580);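 note: tested at 20 µM; growth read once vehicle control cultures reached saturation at 30 °C; 1 = growth at the plate median or of vehicle wells; lower values mean less growth of the strain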
# Details: S. cerevisiae deletion strains, growth OD, locus YKL160W, strain elf1, hits give low values
Screen size: about 5,500 compounds; about 2,000 (36%) were called active. Another 18% or so got no clear call; they are omitted. The list shows a part of the results.
label 1 if normalized growth is below 1. label 0 if not; exact matches included in label 0.

Compound: CN(CCC(N)CC(=O)N[C@H]1C=CC(n2ccc(N)nc2=O)O[C@@H]1C(=O)O)C(=N)N (stereo not given in full)
Qualitative Label: label 1
--
Compound: CNCCCN1c2ccccc2CCc2ccccc21
Qualitative Label: label 0

[in] Confirm or reject: normalized growth of N[C@H](Cc1ccccc1)C(=O)O lies strictly below 1
[out] label 0

###

# Method: chemical genetic growth profiling, strain panel (AID 1159580);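 note: tested at 20 µM; growth read once vehicle control cultures reached saturation at 30 °C; 1 = growth at the plate median or of vehicle wells; lower values mean less growth of the strain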
# Details: S. cerevisiae deletion strains, growth OD, locus YMR307W, strain GAS1
The whole screen tested about 5,500 compounds, of which about 2,000 (36%) were called active. Another 18% or so got no clear call; they are omitted. No stated cut-off is given here; in the data, active means normalized growth mostly below about 0.91 (no sharp cut-off); inconclusive means no clear call, values can overlap the other calls; inactive means mostly above about 0.92. The list shows a part of the results.
A correct response names exactly one class from 1.0 for active, 0.0 for inactive

Compound: COc1cc([C@H]2Oc3cc([C@H]4Oc5cc(O)cc(O)c5C(=O)[C@@H]4O)ccc3O[C@@H]2CO)ccc1O
Qualitative Label: 0.0

[in] // return assay outcome for CCCCSP(=O)(SCCCC)SCCCC
[out] 0.0

[in] // return assay outcome for N[C@@H](Cn1oc(=O)[nH]c1=O)C(=O)O
[out] 0.0

[in] // return assay outcome for NC(=NCCCC(N)C(=O)O)N[N+](=O)[O-] (stereo not drawn)
[out] 0.0

[in] // return assay outcome for COc1cc2c(cc1O)C(Cc1ccc(O)cc1)N(C)CC2 (stereo not drawn)
[out] 0.0

[in] // return assay outcome for CCc1ccccc1NC(C)=O
[out] 0.0

[in] // return assay outcome for C[C@H](CCC(=O)O)[C@H]1CCC2C3C(CC[C@@]21C)[C@@]1(C)CC[C@@H](O)C[C@H]1C[C@H]3O (stereo partly drawn)
[out] 0.0

[in] // return assay outcome for CC(=O)O[C@H]1CC[C@]2(C)C3C(=O)[C@@H](OC(C)=O)[C@@]4(C)C(C[C@@H]5O[C@]6(CCC(C)CO6)[C@@H](C)[C@@H]54)C3CC[C@H]2C1 (stereo partly drawn)
[out] 0.0

[in] // return assay outcome for CC(CN(C)C)CN1c2ccccc2Sc2ccccc21 (stereo not drawn)
[out] 0.0

[in] // return assay outcome for O=C(CSc1nnc(NC(=O)c2cccc([N+](=O)[O-])c2)s1)Nc1ccc2c(c1)OCO2
[out] 0.0

[in] // return assay outcome for CC(=O)Nc1ccccc1
[out] 0.0

[in] // return assay outcome for CC(CN1c2ccccc2Sc2ccccc21)N(C)C (stereo not drawn)
[out] 0.0

[in] // return assay outcome for COc1cc2c(cc1/C=C/C(=O)c1cc(OC)c(OC)cc1OC)OCO2
[out] 0.0

[in] // return assay outcome for O=C(Nc1nccs1)c1ccc([N+](=O)[O-])cc1
[out] 0.0

[in] // return assay outcome for COc1cc2c(cc1-c1cc3cc4ccoc4cc3oc1=O)OCO2
[out] 1.0

[in] // return assay outcome for CCCCC[C@H](CC(=O)NO)C(=O)N[C@H](C(=O)N1CCC[C@H]1CO)C(C)C
[out] 0.0

[in] // return assay outcome for Cc1ccc2cc(NC(=O)c3ccco3)ccc2n1
[out] 1.0

[in] // return assay outcome for C[C@H](N)CN1CCc2ccc(Br)cc21
[out] 0.0
